test system: MILI (PIWIL2) piRISC loaded with piRNA #1 (26 nt); experiment: pre-steady-state target cleavage rate (min^-1); guide: piRNA #1 5'p-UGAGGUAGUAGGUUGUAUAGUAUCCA; higher = faster piRNA-guided slicing of the target; conditions: auxiliary factor: 500 nM mouse GTSF1;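 also: 1 nM active piRISC with 0.1 nM target library at 33 °C single turnover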
Property: pre-steady-state target cleavage rate; scope: individual sequences
Note: the reply should be a number with no unit written.

Illustrative cases are given below, each with its answer.
[[record]]
residues = "GGAGACCUAUCUAUACAAGCUACUACCUCA"
recorded_value = 0.193

[[record]]
residues = "GGAGAGGAUACUAUACAACCUACAUACCUCA"
recorded_value = 0.123

[[record]]
residues = "GGAGAGGAUACUUAUACAACCUACUACCUCA"
recorded_value = 0.127

[[record]]
residues = "GGAGAGGACUACUAUACAACCUACUACCUCA"
recorded_value = 0.186

[[record]]
residues = "GGAGACCUAUGAUUACAACCUUCUACCUCA"
recorded_value = 0.00235


For reference, reported pre-steady-state target cleavage rate for GGAGACCUUACUUUACAACGUACUACCUCA stands at 0.0199

For reference, reported pre-steady-state target cleavage rate for GGAGACCUAACUAUAACAACCUACUACCUCA stands at 0.0743

For reference, reported pre-steady-state target cleavage rate for GGAGAGGAUACUAUACAACCUACUACACUCA stands at 0.136

For reference, reported pre-steady-state target cleavage rate for GGAGACCUAUGAUAAGCAACCUACUACCUCA stands at 0.00516

For reference, reported pre-steady-state target cleavage rate for GGAGAGGAUACUAUACAAGCUACAACCUCA stands at 0.0872

For reference, reported pre-steady-state target cleavage rate for GGAGACCAUACUUUACAAGCUACUACCUCA stands at 0.199

For reference, reported pre-steady-state target cleavage rate for GGAGAGCAUACUAAACAACCUACUACCUCA stands at 0.158

For reference, reported pre-steady-state target cleavage rate for GGAGCGGAUACUAUACAACCUACUACCUCA stands at 0.203

For reference, reported pre-steady-state target cleavage rate for GGAGACCAUACUAUACAAGCUAGUACCUCA stands at 0.0775

For reference, reported pre-steady-state target cleavage rate for GGAGACGAUAGCUAUACAACCUACUACCUCA stands at 0.0779

For reference, reported pre-steady-state target cleavage rate for GGAGACCUAAGAAUACAACCUACUACCUCA stands at 0.0112

For reference, reported pre-steady-state target cleavage rate for GGAGACCUAUCUAUACAACCUACUACGUCA stands at 0.0507

For reference, reported pre-steady-state target cleavage rate for GGAGACCUUACUAUACAACGUACUACCUGA stands at 0.0102

For reference, reported pre-steady-state target cleavage rate for GGAGAGGUUACUAUACAACCUACUACCUGA stands at 0.0157

For reference, reported pre-steady-state target cleavage rate for GGAGUGGAUACUAAAGAACCUACUACCUCA stands at 0.167

For reference, reported pre-steady-state target cleavage rate for GGAGACGAAACUAUACAUCCUACUACCUCA stands at 0.255

* * *

tested on: MILI (PIWIL2) piRISC loaded with L1MC piRNA (26 nt); assay: pre-steady-state target cleavage rate (min^-1); guide: L1MC piRNA 5'p-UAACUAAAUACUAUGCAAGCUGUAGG; MIWI and MILI are mouse PIWI proteins and EfPiwi is from a freshwater sponge; tags in brackets are library labels; higher = faster piRNA-guided slicing of the target; settings: auxiliary factor: 500 nM mouse GTSF1;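 also: 1 nM active piRISC with 0.1 nM target library at 33 °C single turnover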
Property: pre-steady-state target cleavage rate; scope: individual sequences
Note: the reply should be a number with no unit written.

[[record]]
residues = "UCCUGGAUGAGCUAGCUUAGUAUUUAGUUA"
recorded_value = 0.13

[[record]]
residues = "UCCUGGAAGUGCUUGCAUAGUAUUUAGAAA"
recorded_value = 0.00889


For reference, reported pre-steady-state target cleavage rate for UCCUGGUACAGCUUGCACAGUAUUUAGUUA stands at 0.156

For reference, reported pre-steady-state target cleavage rate for UCCUGGUACAGCUUGCAUAGUAUUUACUUA stands at 0.103

For reference, reported pre-steady-state target cleavage rate for UCCUGGAAGAGCUUGCAUAGUAUUUAGAAA stands at 0.109
